- assayDetails: Toxicity against human HuH7 cells incubated for 3 days by CellTiter 96 AQueous One Solution cell proliferation assay
- Assay type: cell-based, Huh-7
Strictly below 20 µM in CC50 at 72 h: true. Otherwise: false.

Some solved entries appear below for comparison.
>>> classassignment("Nc1ncnc2c1c(-c1cnn[nH]1)cn2[C@@H]1O[C@H](CO)[C@@H](O)[C@@H]1F")
"true"
>>> classassignment("C[C@@]1(O)[C@H](O)[C@@H](CO)O[C@H]1n1cc(-c2ccoc2)c2c(N)ncnc21")
"false"
>>> classassignment("C[C@@]1(O)[C@H](O)[C@@H](CO)O[C@H]1n1cc(-c2ccccc2)c2c(N)ncnc21")
"false"
>>> classassignment("Nc1ncnc2c1c(-c1ccoc1)cn2[C@@H]1O[C@H](CO)[C@@H](O)[C@@H]1F")
"false"
>>> classassignment("C[C@@]1(O)[C@H](O)[C@@H](CO)O[C@H]1n1cc(-c2cc3ccccc3o2)c2c(N)ncnc21")
"false"
>>> classassignment("C#Cc1cn([C@@H]2O[C@H](CO)[C@@H](O)[C@@H]2F)c2ncnc(N)c12")
"true"
>>> classassignment("COc1ccc(-c2cn([C@@H]3O[C@H](CO)[C@@H](O)[C@@]3(C)O)c3ncnc(N)c23)cc1")
"false"
>>> classassignment("C[C@@]1(O)[C@H](O)[C@@H](CO)O[C@H]1n1cc(-c2cccs2)c2c(N)ncnc21")
"false"
>>> classassignment("Nc1ncnc2c1c(-c1ccsc1)cn2[C@H]1C[C@H](O)[C@@H](CO)O1")
"false"
>>> classassignment("Nc1ncnc2c1c(-c1ccccc1)cn2[C@@H]1O[C@H](CO)[C@@H](O)[C@@H]1O")
"false"

-- ask # strict comparison: is reported CC50 at 72 h < 20 µM? input = `Nc1ncnc2c1c(-c1cccs1)cn2[C@H]1C[C@H](O)[C@@H](CO)O1`
-- reply false
